Assay: Ro-4-1284 interaction test in rats
Assay type: in vivo, rat
Settings: rat, in vivo, po; read-out: ED50 effect on body temperature immediately before the injection of Ro-4-1284
recordedEndpoint: ED50

1. Cc1cc(-c2cnn3c2C(=O)N(c2ccc(C(F)(F)F)cc2)C[C@@H]3C)ccn1	> 10 mg/kg

----------
Measured Emax of individual entries
Molecular target: human mGlu2 receptor (Homo sapiens, UniProt Q14416)
Construct: expressed in transfected cells; host or cells: CHO cells (membrane preparation)
Sequence (Q14416 19-872): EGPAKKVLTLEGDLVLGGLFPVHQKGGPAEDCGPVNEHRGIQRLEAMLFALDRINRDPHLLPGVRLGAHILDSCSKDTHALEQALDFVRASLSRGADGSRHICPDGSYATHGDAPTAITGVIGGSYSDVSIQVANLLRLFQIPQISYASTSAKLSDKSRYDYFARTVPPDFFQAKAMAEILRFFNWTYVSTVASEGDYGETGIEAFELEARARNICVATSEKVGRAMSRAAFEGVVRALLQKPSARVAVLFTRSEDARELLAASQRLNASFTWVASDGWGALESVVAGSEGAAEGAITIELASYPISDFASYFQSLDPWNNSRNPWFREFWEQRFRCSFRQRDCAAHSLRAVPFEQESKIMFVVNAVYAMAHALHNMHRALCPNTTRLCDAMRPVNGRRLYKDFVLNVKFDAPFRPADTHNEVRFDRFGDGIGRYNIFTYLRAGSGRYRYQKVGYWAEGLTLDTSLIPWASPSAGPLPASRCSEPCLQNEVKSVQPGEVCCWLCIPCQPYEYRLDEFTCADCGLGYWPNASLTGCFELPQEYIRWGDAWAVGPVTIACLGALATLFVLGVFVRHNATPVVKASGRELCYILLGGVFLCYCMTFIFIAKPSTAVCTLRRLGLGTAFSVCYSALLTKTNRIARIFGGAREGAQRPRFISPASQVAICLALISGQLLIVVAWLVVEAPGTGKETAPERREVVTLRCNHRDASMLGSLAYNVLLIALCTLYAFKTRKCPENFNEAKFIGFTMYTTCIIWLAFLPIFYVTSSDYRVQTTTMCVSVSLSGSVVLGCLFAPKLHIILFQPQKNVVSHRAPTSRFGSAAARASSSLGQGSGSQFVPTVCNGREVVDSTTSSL
Experiment: [35S]GTPγS binding assay (mGluR2 negative allosteric modulation)
Assay type: biochemical
Details: relative maximal effect: maximal % inhibition relative to the control glutamate response; read-out: GTPγS - hmGluR2 anGT Emax
recordedEndpoint: Emax (%)

1) Cc1cc(-c2cnn3c2C(=O)N(c2ccc(Cl)c(Cl)c2)CC3CF)ccn1 (single isomer, unassigned) [compound 115]	108
2) COc1nc(N2C[C@H](C)n3ncc(-c4ccnc(C)c4)c3C2=O)ccc1Cl [compound 206]	111
3) C[C@H]1CN(c2ccc(C(F)(F)F)cc2)C(=O)c2c(-c3cccnc3)cnn21 [compound 32]	101
4) CCOc1cc(N2CC(CO)n3ncc(-c4ccnc(C)c4)c3C2=O)ccc1C(F)(F)F (stereo not shown) [compound 74]	100
5) Cc1cc(-c2cnn3c2C(=O)N(c2ccc(Cl)cc2Cl)C[C@@H]3C)ccn1 [compound 167]	105
6) C[C@H]1CN(c2ccc(C(F)(F)F)c(OCCF)c2)C(=O)c2c(-c3ccnc(N(C)C)c3)cnn21 [compound 249]	109
7) Cc1cc(-c2cnn3c2C(=O)N(c2cc(Cl)c(C(F)(F)F)cn2)C[C@@H]3C)ccn1 [compound 204]	107
8) CC[C@@H]1CN(c2ccc(C(F)(F)F)cc2)C(=O)c2c(-c3ccnc(C)c3)cnn21 [compound 129]	100
9) C[C@H]1CN(c2ccc(C(F)(F)F)cn2)C(=O)c2c(-c3ccncc3)cnn21 [compound 190]	105
10) CC(C)c1cc(-c2cnn3c2C(=O)N(c2ccc(Cl)c(Cl)c2)C[C@@H]3C)ccn1 [compound 124]	108
11) C[C@H]1CN(c2ccc(C(F)(F)F)cc2)C(=O)c2c(-c3ccnc(C4CC4)c3)cnn21 [compound 173]	106
12) C[C@H]1CN(c2ccc(C(F)(F)F)cc2)C(=O)c2c(-c3ccnc(CF)c3)cnn21 [compound 112]	103
13) CCOc1ccc(N2C[C@H](C)n3ncc(-c4ccnc(C)c4)c3C2=O)cc1Cl [compound 17]	104
14) Cc1cc(-c2cnn3c2C(=O)N(c2ccc(OCCF)c(C(F)(F)F)c2)C[C@@H]3C)ccn1 [compound 77]	101
15) Cc1cc(-c2cnn3c2C(=O)N(c2ccc(C(F)(F)F)cc2)C[C@@H]3C)cc[n+]1[O-] [compound 140]	104
16) Cc1cc(-c2cnn3c2C(=O)N(c2ccc(C(F)(F)F)cc2)CC3C(F)F)ccn1 (stereo not shown) [compound 181]	103
17) CC(=O)N1CC(c2ccc(-c3cnn4c3C(=O)N(c3ccc(C(F)(F)F)cc3)C[C@@H]4C)cn2)C1 [compound 235]	102
18) Cc1cc(-c2cnn3c2C(=O)N(c2ccc(OC(C)C(F)(F)F)cc2)C[C@@H]3C)ccn1 (stereo partly shown) [compound 165]	102
19) CC(C)Oc1cc(-c2cnn3c2C(=O)N(c2ccc(C(F)(F)F)cc2)C[C@@H]3C)ccn1 [compound 138]	105
20) C[C@H]1CN(c2ccc(C(F)(F)F)cc2)C(=O)c2c(-c3ccnc(N4CCCCC4)c3)cnn21 [compound 107]	114
21) C[C@H]1CN(c2ccc(Cl)c(Cl)c2)C(=O)c2c(-c3ccnc(C(F)F)c3)cnn21 [compound 114]	104
22) CCOc1nc(N2C[C@H](C)n3ncc(-c4ccnc(C)c4)c3C2=O)ccc1C(F)(F)F (single isomer, unassigned) [compound 200]	105
23) CCCc1ccc(N2C[C@H](C)n3ncc(-c4ccnc(C)c4)c3C2=O)cc1 [compound 66]	107
24) CC(C)c1cc(-c2cnn3c2C(=O)N(c2ccc(C(F)(F)F)cc2)C[C@@H]3C)ccn1 [compound 126]	108
25) Cc1cc(-c2cnn3c2C(=O)N(c2ccc(C(C)C)cc2)C[C@@H]3C)ccn1 [compound 65]	106
26) COc1ccc(N2C[C@H](C)n3ncc(-c4ccnc(C)c4)c3C2=O)cc1 [compound 38]	103
27) CCOc1ccc(N2C[C@H](C)n3ncc(-c4ccnc(C)c4)c3C2=O)cc1.Cl [compound 81, hydrochloride salt]	103
28) CCOc1ccc(N2C[C@H](C)n3ncc(-c4ccnc(C)c4)c3C2=O)nc1F [compound 191]	109
29) C[C@H]1CN(c2ccc(C(F)(F)F)c(Cl)c2)C(=O)c2c(-c3ccnc(C#N)c3)cnn21 [compound 100]	109
30) C[C@H]1CN(c2ccc(C(F)(F)F)c(Cl)c2)C(=O)c2c(-c3ccncc3)cnn21 [compound 50]	103
31) Cc1cc(-c2cnn3c2C(=O)N(c2ccc(C(F)(F)F)c(C)c2)C[C@@H]3C)cc(C)n1 [compound 157]	104
